Readings of Organ-to-muscle ratio, intestine (mean ± SD) for the listed compounds
Tested on: HT-29 excised tumors and tissues
Experiment: Ex vivo biodistribution in excised tumors and organs
Design: species or system mice
Conditions: ex vivo, 24 hours after administration, 1 nmol
Lab note: record the figure alone, no unit after it.

CC(CC[N+]1=C(/C=C/C=C/C=C/C=C2/N(CCCCCC(=O)NCCCCCCCC(=O)Nc3nnc(S(N)(=O)=O)s3)c3ccc(C(=O)NC[C@H](O)[C@@H](O)[C@H](O)[C@H](O)CO)cc3C2(C)C)C(C)(C)c2cc(C(=O)NC[C@H](O)[C@@H](O)[C@H](O)[C@H](O)CO)ccc21)S(=O)(=O)[O-] (some centres unmarked): 1.6
CC(=O)NC(CCCCn1cc(CCCC(=O)Nc2nnc(S(N)(=O)=O)s2)nn1)C(=O)NCCOCCOCCNC(=O)CCCCCN1/C(=C/C=C2\CCCC(/C=C/C3=[N+](CCCCS(=O)(=O)[O-])c4ccc(C(=O)NC[C@H](O)[C@@H](O)[C@H](O)[C@H](O)CO)cc4C3(C)C)=C2Oc2ccc(S(=O)(=O)O)cc2)C(C)(C)c2cc(C(=O)NC[C@H](O)[C@@H](O)[C@H](O)[C@H](O)CO)ccc21 (some centres unmarked) [Reference 2]: 3.0
CC1(C)C(/C=C/C2=C(Oc3ccc(S(=O)(=O)O)cc3)C(=C/C=C3/N(CCCCCC(=O)NCCCCCCCC(=O)Nc4nnc(S(N)(=O)=O)s4)c4ccc(C(=O)NC[C@H](O)[C@@H](O)[C@H](O)[C@H](O)CO)cc4C3(C)C)/CCC2)=[N+](CCCCS(=O)(=O)[O-])c2ccc(C(=O)NC[C@H](O)[C@@H](O)[C@H](O)[C@H](O)CO)cc21: 1.8
CC(=O)NC(CCCCn1cc(CCCC(=O)Nc2nnc(S(N)(=O)=O)s2)nn1)C(=O)NCCOCCOCCNC(=O)CCCCCN1/C(=C/C=C/C=C/C=C/C2=[N+](CCC(C)S(=O)(=O)[O-])c3ccc(C(=O)NC[C@H](O)[C@@H](O)[C@H](O)[C@H](O)CO)cc3C2(C)C)C(C)(C)c2cc(C(=O)NC[C@H](O)[C@@H](O)[C@H](O)[C@H](O)CO)ccc21 (some centres unmarked) [Reference 3]: 2.7

Switching to the query record.
Please look up its Organ-to-muscle ratio, intestine (mean ± SD): CC1(C)C(/C=C/C2=C(Oc3ccc(CCC(=O)NCCCCCCCC(=O)Nc4nnc(S(N)(=O)=O)s4)cc3)C(=C/C=C3/N(CCCCS(=O)(=O)O)c4ccc(S(=O)(=O)O)cc4C3(C)C)/CCC2)=[N+](CCCCS(=O)(=O)[O-])c2ccc(S(=O)(=O)O)cc21 [Reference 1] 2.2

---

Molecular target: human serum albumin (HSA) (Homo sapiens, UniProt P02768)
Construct: purchased Sigma-Aldrich A9511
Sequence (P02768 25-609): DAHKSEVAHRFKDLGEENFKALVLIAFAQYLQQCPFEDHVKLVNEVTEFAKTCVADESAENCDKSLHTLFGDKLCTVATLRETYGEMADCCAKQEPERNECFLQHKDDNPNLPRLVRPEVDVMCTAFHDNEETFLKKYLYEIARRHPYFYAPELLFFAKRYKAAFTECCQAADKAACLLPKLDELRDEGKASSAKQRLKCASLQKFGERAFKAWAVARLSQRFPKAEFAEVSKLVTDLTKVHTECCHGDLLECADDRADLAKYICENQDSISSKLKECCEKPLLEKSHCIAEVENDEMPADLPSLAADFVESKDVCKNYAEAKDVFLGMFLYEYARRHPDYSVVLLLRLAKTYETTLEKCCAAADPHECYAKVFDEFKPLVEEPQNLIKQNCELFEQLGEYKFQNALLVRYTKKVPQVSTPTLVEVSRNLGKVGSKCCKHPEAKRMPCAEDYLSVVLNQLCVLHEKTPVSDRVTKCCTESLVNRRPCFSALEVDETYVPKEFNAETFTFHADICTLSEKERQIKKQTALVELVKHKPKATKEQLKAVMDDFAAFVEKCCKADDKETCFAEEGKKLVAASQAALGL
Test: Binding to albumin (ultrafiltration, absorbance of filtrates)
Format: in vitro ADME
Conditions: 4.76 μM probe in PBS, 10 KDa cut off ultrafiltration, 25° C.; read-out: HSA affinity (KA, M^−1) (converted)
observation_type: Kd (µM)
Answer with a number only, understood to be in µM.

Known Kd results, listed for orientation:
CC(=O)NC(CCCCn1cc(CCCC(=O)Nc2nnc(S(N)(=O)=O)s2)nn1)C(=O)NCCOCCOCCNC(=O)CCCCCN1/C(=C/C=C2\CCCC(/C=C/C3=[N+](CCCCS(=O)(=O)[O-])c4ccc(C(=O)NC[C@H](O)[C@@H](O)[C@H](O)[C@H](O)CO)cc4C3(C)C)=C2Oc2ccc(S(=O)(=O)O)cc2)C(C)(C)c2cc(C(=O)NC[C@H](O)[C@@H](O)[C@H](O)[C@H](O)CO)ccc21 (some centres unmarked) [Reference 2]: 69.9
CC(=O)NC(CCCCn1cc(CCCC(=O)Nc2nnc(S(N)(=O)=O)s2)nn1)C(=O)NCCOCCOCCNC(=O)CCCCCN1/C(=C/C=C/C=C/C=C/C2=[N+](CCC(C)S(=O)(=O)[O-])c3ccc(C(=O)NC[C@H](O)[C@@H](O)[C@H](O)[C@H](O)CO)cc3C2(C)C)C(C)(C)c2cc(C(=O)NC[C@H](O)[C@@H](O)[C@H](O)[C@H](O)CO)ccc21 (some centres unmarked) [Reference 3]: 24
CC(CC[N+]1=C(/C=C/C=C/C=C/C=C2/N(CCCCCC(=O)NCCCCCCCC(=O)Nc3nnc(S(N)(=O)=O)s3)c3ccc(C(=O)NC[C@H](O)[C@@H](O)[C@H](O)[C@H](O)CO)cc3C2(C)C)C(C)(C)c2cc(C(=O)NC[C@H](O)[C@@H](O)[C@H](O)[C@H](O)CO)ccc21)S(=O)(=O)[O-] (some centres unmarked) [Compound 2]: 105
CC1(C)C(/C=C/C2=C(Oc3ccc(S(=O)(=O)O)cc3)C(=C/C=C3/N(CCCCCC(=O)NCCCCCCCC(=O)Nc4nnc(S(N)(=O)=O)s4)c4ccc(C(=O)NC[C@H](O)[C@@H](O)[C@H](O)[C@H](O)CO)cc4C3(C)C)/CCC2)=[N+](CCCCS(=O)(=O)[O-])c2ccc(C(=O)NC[C@H](O)[C@@H](O)[C@H](O)[C@H](O)CO)cc21 [Compound 1]: 80

Switching to the query record.
Please look up its Kd: CC1(C)C(/C=C/C2=C(Oc3ccc(CCC(=O)NCCCCCCCC(=O)Nc4nnc(S(N)(=O)=O)s4)cc3)C(=C/C=C3/N(CCCCS(=O)(=O)O)c4ccc(S(=O)(=O)O)cc4C3(C)C)/CCC2)=[N+](CCCCS(=O)(=O)[O-])c2ccc(S(=O)(=O)O)cc21 [Reference 1] 6.4
